target: pooled human IgG (human IgG1, 2, 3 and 4)
Below, each of the proteins is paired with its reported Enzyme Activity Endpoint Assay: Fab′2 value.
The reply should contain only the number, in ng/µL.

Use these answered entries as a reference point.
protein	observed.measurement
PRT-685 (protein) MQITSVWTKGVTPLTPEQFRNNNEDVIHAPYLPNQGWYDITKAFNGKDNLLCGAATAGNMLHWWFDQNKEEIEAYLKKYPEKQKIIFNNQELFDLRKAINTKDSQTNSALFNYFRDKAFPNLSARQLGVMPDLVLDMFINGYYLNVFKTQSTDVNRPYQDKDKRGGIFDHVFNRGDQTTLLTARHDLKNKTLNDISTIIKQELSSGKALALSHTYANVSISHVINLWGADFNAEGNLEAIYVTDSDANASIGMKKYYVGRNAHGHVAISAKKIEGENIGAQVLGLFTLSSGKEIWQKLSLEHHHHHH	1200
PRT-399 (protein) MVTSVWTKGVTPPADFTQGEDVFHAPYVANQGWYDITKTFNGKDDLLCGAATAGNMLHWWFDQNKEYIEAYLKKHPEKQKIMFGDQELLDVRKAINTKGSQKNSELFNYFRDKAFPNLSARRLGVMPDLVLDMFINGYYLNVTKTQTTDVNRTYQEKDKRGGIFDAVFTRGDQSKLLTSRHDFKEKGLKEISDLIKQELTEGKALGLSHTYANVRINHVINLWGADFDSDGNLKAIYVTDSDSNASIGMKKYVVGVNSAGKVAISAKEIKEDNIGAQVLGLFTLSTGQDIWNQTN	0
PRT-254 (protein) MVTSVWTKGVTPPTNFTYGEDVLHAPYVANQGWYDITKTFNGKDDLLCGAATAGNMLHWWFDQNKEQIENYLKKHPEKQKINFNGEQMFDVKEAIDTKDSQLDSKLFEYFLEKAFPNLSTKHLGVFPDHVIDMFINGYRLSLLNHGPTPVKRGSKDPRGGIFDAVFTRGDQSKLLTNRHDFKEKTLKEISDLIKQELTEGKALGISHTYANVRINHVINLWGADFDAEGNLEAIYVTDSDSNKSIGMKKYPVGVNSNGKVAISAKEIEEDNIGAQVLGLFTLSTGQDIWNQTN	677

The reported value for PRT-408 (protein) MVTSVWTKGVTPPADFTQGEDVFHAPYVANQGWYDITKTFNGKDDLLCGAATAGNMLHWWFDQNKEYIEAYLKKHPEKQKIMFGDQELLDVRKAINTKGSQKNSELFNYFRDKAFPNLSARRLGVFPDLVLDMFINGYYLNVTKTQTTDVNRTYQEKDKRGGIFDAVFTRGDQSKLLTSRHDFKEKGLKEISDLIKQELTEGKALGLSHTYANVRINHVINLWGADFDSDGNLKAIYVTDSDSNASIGMKKYFVGVNSAGKVAISAKEIKEDNIGAQVLGLFTLSTGQDIWNQTN in terms of Enzyme Activity Endpoint Assay: Fab′2 is 564
